# Tested on: Canis familiaris
# PROTOCOL: Plasma clearance in vivo in dog by intravenous administration at a dose of 1 mg/kg
# Format: ADME, organism-based, Canis lupus familiaris
# Design: dose 1 mg/kg, route intravenous

| MOLECULE SMILES | TARGET OR TEST SYSTEM | Cl / mL/min/kg |
| --- | --- | --- |
| O=C(O)C[C@H](NC(=O)Cn1c(C2CC2)cnc(NCc2ccc3c(n2)NCCC3)c1=O)c1ccc2c(c1)OCO2 | Canis familiaris | 26 |
| Cc1ccc(NCc2ccc3c(n2)NCCC3)c(=O)n1CC(=O)N[C@@H](CC(=O)O)c1cccnc1 | Canis familiaris | 21 |
| O=C(O)C[C@H](NC(=O)Cn1c(C2CC2)ccc(NCc2ccc3c(n2)NCCC3)c1=O)c1cccc(F)c1 | Canis familiaris | 20 |
| Cc1c(Cl)nc(NCc2ccc3c(n2)NCCC3)c(=O)n1CC(=O)N[C@@H](CC(=O)O)c1cccc(F)c1 | Canis familiaris | 28 |
| O=C(O)C[C@H](NC(=O)Cn1c(C2CC2)cnc(NCc2ccc3c(n2)NCCC3)c1=O)c1cccc(F)c1 | Canis familiaris | 26 |
| CCc1cnc(NCc2ccc3c(n2)NCCC3)c(=O)n1CC(=O)N[C@@H](CC(=O)O)c1cccc(F)c1 | Canis familiaris | 22 |

====

pIC50 for assorted compounds
# TARGET OR TEST SYSTEM: Integrin alpha-V/beta-3 (Homo sapiens, UniProt P05106+P06756)
# Sequence (P05106 27-788 limits assumed): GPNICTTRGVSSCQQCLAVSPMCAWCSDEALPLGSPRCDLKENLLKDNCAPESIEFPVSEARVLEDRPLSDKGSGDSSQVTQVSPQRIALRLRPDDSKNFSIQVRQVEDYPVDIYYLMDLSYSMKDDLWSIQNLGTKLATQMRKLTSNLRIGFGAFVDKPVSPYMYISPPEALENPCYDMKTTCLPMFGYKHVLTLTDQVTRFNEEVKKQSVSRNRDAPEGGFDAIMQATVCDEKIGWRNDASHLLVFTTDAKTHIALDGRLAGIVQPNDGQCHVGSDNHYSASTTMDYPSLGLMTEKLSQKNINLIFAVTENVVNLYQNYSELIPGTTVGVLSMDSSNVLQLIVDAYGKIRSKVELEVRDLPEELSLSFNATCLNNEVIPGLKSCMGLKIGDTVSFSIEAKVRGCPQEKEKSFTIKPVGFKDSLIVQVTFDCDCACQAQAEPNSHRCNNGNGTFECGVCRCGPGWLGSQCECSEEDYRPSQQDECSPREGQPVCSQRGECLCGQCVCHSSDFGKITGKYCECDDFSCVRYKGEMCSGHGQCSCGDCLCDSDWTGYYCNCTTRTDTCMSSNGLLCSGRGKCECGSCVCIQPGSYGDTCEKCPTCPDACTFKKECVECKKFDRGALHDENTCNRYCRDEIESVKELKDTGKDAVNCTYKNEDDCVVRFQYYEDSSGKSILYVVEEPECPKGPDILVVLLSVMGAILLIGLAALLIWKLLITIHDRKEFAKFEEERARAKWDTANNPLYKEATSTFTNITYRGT
# Sequence (P06756 31-889 limits assumed): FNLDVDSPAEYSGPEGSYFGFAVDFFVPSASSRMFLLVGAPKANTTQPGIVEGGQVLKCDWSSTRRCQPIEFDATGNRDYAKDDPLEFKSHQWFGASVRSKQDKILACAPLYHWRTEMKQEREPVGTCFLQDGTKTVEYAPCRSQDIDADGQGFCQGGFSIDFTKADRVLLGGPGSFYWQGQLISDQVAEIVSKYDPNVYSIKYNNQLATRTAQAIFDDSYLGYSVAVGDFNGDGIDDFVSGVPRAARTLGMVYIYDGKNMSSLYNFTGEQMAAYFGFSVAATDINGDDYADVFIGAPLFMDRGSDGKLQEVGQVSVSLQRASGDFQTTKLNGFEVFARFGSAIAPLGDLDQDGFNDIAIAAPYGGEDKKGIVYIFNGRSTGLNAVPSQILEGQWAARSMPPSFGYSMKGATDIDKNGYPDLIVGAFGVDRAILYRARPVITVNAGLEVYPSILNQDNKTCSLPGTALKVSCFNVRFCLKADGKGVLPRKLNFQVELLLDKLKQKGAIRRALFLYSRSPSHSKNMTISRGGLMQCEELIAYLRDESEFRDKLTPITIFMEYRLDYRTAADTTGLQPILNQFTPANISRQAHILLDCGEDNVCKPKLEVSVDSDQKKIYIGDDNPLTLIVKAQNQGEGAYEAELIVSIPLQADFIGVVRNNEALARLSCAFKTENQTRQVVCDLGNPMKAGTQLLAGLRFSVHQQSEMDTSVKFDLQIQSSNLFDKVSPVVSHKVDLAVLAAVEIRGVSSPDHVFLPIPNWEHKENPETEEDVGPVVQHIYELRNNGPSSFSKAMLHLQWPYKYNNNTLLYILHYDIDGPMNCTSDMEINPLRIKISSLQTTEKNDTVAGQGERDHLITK
# Sequence (P06756 891-1048 limits assumed): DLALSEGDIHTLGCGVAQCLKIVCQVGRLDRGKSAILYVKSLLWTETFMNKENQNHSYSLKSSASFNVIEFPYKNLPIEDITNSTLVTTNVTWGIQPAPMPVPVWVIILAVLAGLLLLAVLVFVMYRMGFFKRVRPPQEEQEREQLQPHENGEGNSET
# PROTOCOL: Inhibitory activity against human alpha V beta3 receptor using SPAV3 assay
# Format: protein-complex assay
pIC50: −log10 of the molar value.

| MOLECULE SMILES | pIC50 |
| --- | --- |
| Cc1cnc(NCc2ccc3c(n2)NCCC3)c(=O)n1CC(=O)N[C@@H](CC(=O)O)c1cccc(F)c1 | 8.96 |
| O=C(O)C[C@H](NC(=O)Cn1c(-c2ccccc2)c(Cl)nc(NCc2ccc3c(n2)NCCC3)c1=O)c1cccc(F)c1 | 6.95 |
| O=C(O)C[C@H](NC(=O)Cn1c(C2CC2)c(Cl)nc(NCc2ccc3c(n2)NCCC3)c1=O)c1ccc2c(c1)OCC2 | 9.70 |
| CCc1cnc(NCc2ccc3c(n2)NCCC3)c(=O)n1CC(=O)N[C@@H](CC(=O)O)c1cccc(F)c1 | 8.72 |
| O=C(O)C[C@H](NC(=O)CN1CC[C@H](CCc2ccc3c(n2)NCCC3)C1=O)c1cccnc1 | 9.40 |
| O=C(O)C[C@H](NC(=O)Cn1c(C2CC2)cnc(NCc2ccc3c(n2)NCCC3)c1=O)c1cccc(F)c1 | 8.85 |

====

# PROTOCOL: Protein binding in human plasma
# Type: ADME, cell-free
# CONDITIONS USED: read-out: PB (converted)

| MOLECULE SMILES | fraction unbound |
| --- | --- |
| O=C(O)C[C@H](NC(=O)CN1CC[C@H](CCc2ccc3c(n2)NCCC3)C1=O)c1cccnc1 | 0.446 |
| O=C(O)C[C@H](NC(=O)Cn1c(C2CC2)ccc(NCc2ccc3c(n2)NCCC3)c1=O)c1cccc(F)c1 | 0.006 |
| O=C(O)C[C@H](NC(=O)Cn1c(C2CC2)cnc(NCc2ccc3c(n2)NCCC3)c1=O)c1cccc(F)c1 | 0.025 |
| CCc1cnc(NCc2ccc3c(n2)NCCC3)c(=O)n1CC(=O)N[C@@H](CC(=O)O)c1cccc(F)c1 | 0.028 |

====

# PROTOCOL: Protein binding in human plasma
# Type: ADME, cell-free
# CONDITIONS USED: read-out: PB (converted)

| MOLECULE SMILES | fraction unbound |
| --- | --- |
| Cc1ccc(NCc2ccc3c(n2)NCCC3)c(=O)n1CC(=O)N[C@@H](CC(=O)O)c1cccnc1 | 0.088 |
| O=C(O)C[C@H](NC(=O)Cn1c(C2CC2)cnc(NCc2ccc3c(n2)NCCC3)c1=O)c1ccc2c(c1)OCO2 | 0.025 |
| Cc1c(Cl)nc(NCc2ccc3c(n2)NCCC3)c(=O)n1CC(=O)N[C@@H](CC(=O)O)c1cccc(F)c1 | 0.015 |

====

bioavailability for assorted compounds
# PROTOCOL: Oral bioavailability in dog (dose 1 mg/kg i.v.)
# Assay type: ADME, organism-based, Canis lupus familiaris
# CONDITIONS USED: in vivo

| MOLECULE SMILES | bioavailability [%] |
| --- | --- |
| O=C(O)C[C@H](NC(=O)Cn1c(C2CC2)cnc(NCc2ccc3c(n2)NCCC3)c1=O)c1cccc(F)c1 | 0.3 |
| O=C(O)C[C@H](NC(=O)Cn1c(C2CC2)cnc(NCc2ccc3c(n2)NCCC3)c1=O)c1ccc2c(c1)OCO2 | 0.3 |
| CCc1cnc(NCc2ccc3c(n2)NCCC3)c(=O)n1CC(=O)N[C@@H](CC(=O)O)c1cccc(F)c1 | 4.3 |
| O=C(O)C[C@H](NC(=O)Cn1c(C2CC2)ccc(NCc2ccc3c(n2)NCCC3)c1=O)c1cccc(F)c1 | 3 |

====

# PROTOCOL: Partition coefficient (logP)
# Assay type: physicochemical
# CONDITIONS USED: octanol/water
Decision: logP beneath -0.3 gives TRUE; logP meeting or exceeding -0.3 gives FALSE.

| MOLECULE SMILES | GROUP |
| --- | --- |
| Cc1c(Cl)nc(NCc2ccc3c(n2)NCCC3)c(=O)n1CC(=O)N[C@@H](CC(=O)O)c1cccc(F)c1 | FALSE |
| O=C(O)C[C@H](NC(=O)Cn1c(C2CC2)c(Cl)nc(NCc2ccc3c(n2)NCCC3)c1=O)c1cccnc1 | FALSE |
| O=C(O)C[C@H](NC(=O)Cn1c(C2CC2)ccc(NCc2ccc3c(n2)NCCC3)c1=O)c1cccnc1 | TRUE |
| O=C(O)C[C@H](NC(=O)Cn1c(C2CC2)cnc(NCc2ccc3c(n2)NCCC3)c1=O)c1cccc(F)c1 | FALSE |
| CCCc1ccc(NCc2ccc3c(n2)NCCC3)c(=O)n1CC(=O)N[C@@H](CC(=O)O)c1cccnc1 | TRUE |
| Cc1cnc(NCc2ccc3c(n2)NCCC3)c(=O)n1CC(=O)N[C@@H](CC(=O)O)c1cccc(F)c1 | TRUE |
| O=C(O)C[C@H](NC(=O)Cn1c(C2CC2)ccc(NCc2ccc3c(n2)NCCC3)c1=O)c1cccc(F)c1 | FALSE |

====

# TARGET OR TEST SYSTEM: Integrin alpha-V/beta-3 (Homo sapiens, UniProt P05106+P06756)
# PROTOCOL: Inhibitory activity against human alphaV-beta3 integrin using SPAV3 assay
# Type: protein-complex assay
IC50 for assorted molecules

| MOLECULE SMILES | UNIT | IC50 |
| --- | --- | --- |
| O=C(O)C[C@H](NC(=O)Cn1c(C2CC2)ccc(NCc2ccc3c(n2)NCCC3)c1=O)c1cccc(F)c1 | nM | 0.8 |
| CCCc1ccc(NCc2ccc3c(n2)NCCC3)c(=O)n1CC(=O)N[C@@H](CC(=O)O)c1cccnc1 | nM | 1.4 |
| O=C(O)C[C@H](NC(=O)Cn1cccc(NCc2ccc3c(n2)NCCC3)c1=O)c1cccnc1 | nM | 1.4 |
| Cc1cnc(NCc2ccc3c(n2)NCCC3)c(=O)n1CC(=O)N[C@@H](CC(=O)O)c1cccnc1 | nM | 0.8 |
| Cc1ccc(NCc2ccc3c(n2)NCCC3)c(=O)n1CC(=O)N[C@@H](CC(=O)O)c1cccnc1 | nM | 1 |

====

# PROTOCOL: Half-life in vivo in dog by intravenous administration at a dose of 0.2 mg/kg
# Format: ADME, organism-based, Canis lupus familiaris
# Design: dose 0.2 mg/kg, route intravenous
half-life for assorted compounds

| MOLECULE SMILES | half-life, min |
| --- | --- |
| Cc1c(Cl)nc(NCc2ccc3c(n2)NCCC3)c(=O)n1CC(=O)N[C@@H](CC(=O)O)c1cccc(F)c1 | 126 |
| Cc1ccc(NCc2ccc3c(n2)NCCC3)c(=O)n1CC(=O)N[C@@H](CC(=O)O)c1cccnc1 | 48 |
| O=C(O)C[C@H](NC(=O)Cn1c(C2CC2)cnc(NCc2ccc3c(n2)NCCC3)c1=O)c1ccc2c(c1)OCO2 | 66 |
| O=C(O)C[C@H](NC(=O)CN1CC[C@H](CCc2ccc3c(n2)NCCC3)C1=O)c1cccnc1 | 60 |
| O=C(O)C[C@H](NC(=O)Cn1c(C2CC2)ccc(NCc2ccc3c(n2)NCCC3)c1=O)c1cccc(F)c1 | 48 |
